- system.name: NPFF1 (Homo sapiens, UniProt Q9GZQ6)
- Sequence (Q9GZQ6 whole entry, species assumed): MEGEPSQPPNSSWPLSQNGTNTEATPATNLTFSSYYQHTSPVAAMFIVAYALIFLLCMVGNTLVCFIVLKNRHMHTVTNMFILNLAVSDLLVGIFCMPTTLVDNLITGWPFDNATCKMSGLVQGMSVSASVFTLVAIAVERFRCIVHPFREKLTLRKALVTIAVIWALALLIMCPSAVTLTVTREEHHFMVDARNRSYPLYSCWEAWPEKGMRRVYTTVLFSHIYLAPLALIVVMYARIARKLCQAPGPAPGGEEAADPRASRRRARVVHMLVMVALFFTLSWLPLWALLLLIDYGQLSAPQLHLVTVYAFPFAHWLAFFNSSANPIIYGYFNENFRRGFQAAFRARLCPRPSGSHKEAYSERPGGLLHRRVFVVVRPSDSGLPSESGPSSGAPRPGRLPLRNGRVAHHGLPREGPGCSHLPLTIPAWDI
- assay.procedure: Receptor Selection and Amplification Technology (R-SAT) functional assay, NPFF1
- Format: cell-based
- Parameters: expressed in transfected cells; host or cells: NIH3T3
- condition.details: R-SAT, Table 1; Efficacy is relative to endogenous ligand; read-out: NPFF1 % Efficacy
Counter-ions that a name gives are not always drawn.
# note: exactly 30% is not below, so it is Criterion not met; use Criterion met for Emax strictly under it

Please review the following examples before continuing.
Qu. Strictly below 30% in Emax? CCOc1ccc(C=NNC(=N)N)cc1OCC
Ans. Criterion met

Qu. Dear colleague, could you confirm whether Emax of N=C(N)NN=Cc1ccc(C(F)(F)F)c(F)c1 [Compound 2063, Hydrochloride] falls below 30%? Thanks.
Ans. Criterion not met

Qu. Answer whether the compound COc1cc(OC)c(C=NNC(=N)N)cc1Br [Compound 4015, Hydrochloride] has Emax strictly less than 30%
Ans. Criterion not met

Qu. In the record for CC(=NNC(=N)N)c1ccc(N2CCCCC2)cc1 [Compound 3039, Hydrochloride] , is Emax less than 30%?
Ans. Criterion not met

Qu. Below 30% on Emax? Entry COc1ccc(C=NNC(=N)N)c(C)c1C [Compound 2034, Hydrochloride]
Ans. Criterion met

Qu. Lab note: Emax threshold 30%. Does this compound come in strictly under it? [H]/N=C(\N)NN=Cc1ccc(Cl)cc1 [Compound 4008, Hydrochloride]
Ans. Criterion not met

Continuing:
Qu. Please check: Emax for N=C(N)NN=Cc1ccc2ccccc2c1 [Compound 2075, Hydrochloride] , strictly under 30% or not?
Ans. Criterion met

Qu. Below 30% on Emax? Entry CCN(CC)c1ccc(C=NNC(=N)N)cc1 [Compound 3038, Hydrochloride]
Ans. Criterion not met

====

- system.name: NPFF1 (Homo sapiens, UniProt Q9GZQ6)
- assay.procedure: Receptor Selection and Amplification Technology (R-SAT) functional assay, NPFF1
- Format: cell-based
- Set-up: expressed in transfected cells; host or cells: NIH3T3
- condition.details: R-SAT, Table 1; NA = No activity detectable at the highest dose tested (20 μM); read-out: NPFF1 pEC50 (converted)
Structures can show the parent of a compound that is named as a salt.
// boundary case: EC50 equal to 4 µM maps to no (0); strictly smaller maps to yes (1)

Past entries and their recorded results:
Qu. Is EC50 of CC(=NNC(=N)N)c1ccc(N2CCCCC2)cc1 [Compound 3039, Hydrochloride] strictly below 4 µM?
Ans. yes (1)

Qu. Report whether reported EC50 is lower than 4 µM (strictly) for CCN(CC)c1ccc(C=NNC(=N)N)c(OC)c1 [Compound 3043, Hydrochloride]
Ans. yes (1)

Qu. is_below(EC50, 4 µM) for N=C(N)NN=Cc1ccc(Oc2ccccc2)cc1 [Compound 2020, Hydrochloride] ?
Ans. yes (1)

Qu. Does the reported EC50 of the following compound sit strictly below 4 µM? N=C(N)NN=Cc1ccc2ccccc2c1 [Compound 2075, Hydrochloride]
Ans. yes (1)

Qu. Say whether its EC50 is strictly beneath 4 µM. Entry: Cc1ccc(C=NNC(=N)N)c(C)c1 [Compound 2077, Hydrochloride]
Ans. yes (1)

Qu. Say whether its EC50 is strictly beneath 4 µM. Entry: CCc1ccc(C=NNC(=N)N)cc1 [Compound 3025, Hydrochloride]
Ans. yes (1)

Qu. Here's an entry: COc1cc(OC)c(C=NNC(=N)N)cc1Br [Compound 4015, Hydrochloride] . Is its EC50 below 4 µM?
Ans. no (0)

Qu. Hello, is EC50 of the following compound strictly smaller than 4 µM? COc1ccc2ccccc2c1C=NNC(=N)N [Compound 3007, Hydrochloride]
Ans. no (0)

Qu. EC50 under 4 µM? Item: CC(=NNC(=N)N)c1ccc2c(c1)OCO2 [Compound 3032, Hydrochloride]
Ans. no (0)

Qu. Below 4 µM on EC50? Entry CN(CCO)c1ccc(C=NNC(=N)N)cc1 [Compound 3041, Hydrochloride]
Ans. no (0)

Further cases:
Qu. Below 4 µM on EC50? Entry CN(CCC#N)c1ccc(C=NNC(=N)N)cc1 [Compound 3040, Hydrochloride]
Ans. yes (1)

====

- system.name: UniProt Q9GZQ6
- assay.procedure: Receptor Selection and Amplification Technology (R-SAT) functional assay, NPFF1
- Type: cell-based
- Set-up: expressed in transfected cells; host or cells: NIH3T3
Where a name gives a salt, the structure may show the parent alone.
parameter.measured: EC50 (nM)
Number in nM, nothing else.

Form: compound = NC(N)=NN=Cc1ccc(-c2ccccc2C(F)(F)F)o1 (racemic) [Compound 2616, Hydrochloride] ; EC50 = 39.8

====

- system.name: NPFF2 (Homo sapiens, UniProt Q9Y5X5)
- Construct: expressed in transfected cells; host or cells: NIH3T3
- Sequence (Q9Y5X5 103-522): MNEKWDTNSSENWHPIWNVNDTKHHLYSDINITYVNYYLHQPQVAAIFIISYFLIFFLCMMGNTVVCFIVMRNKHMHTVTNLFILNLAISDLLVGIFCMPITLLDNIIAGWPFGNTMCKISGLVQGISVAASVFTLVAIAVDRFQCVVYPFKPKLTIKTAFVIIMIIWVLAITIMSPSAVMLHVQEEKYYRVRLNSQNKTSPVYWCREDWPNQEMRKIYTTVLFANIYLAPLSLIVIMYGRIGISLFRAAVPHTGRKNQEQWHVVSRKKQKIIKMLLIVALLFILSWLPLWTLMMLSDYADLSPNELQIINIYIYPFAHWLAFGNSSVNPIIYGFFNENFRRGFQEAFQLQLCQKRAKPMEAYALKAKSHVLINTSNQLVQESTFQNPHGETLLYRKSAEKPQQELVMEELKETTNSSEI
- assay.procedure: Receptor Selection and Amplification Technology (R-SAT) functional assay, NPFF2
- Assay type: cell-based
- condition.details: R-SAT, Table 1; Efficacy is relative to endogenous ligand; read-out: NPFF2 % Efficacy
Counter-ions that a name gives are not always drawn.
Outcome: condition met for Emax of at least 60%; condition not met for anything lower.

Qu. Given the entry COc1ccc(/C=N/NC(=N)N)cc1 , answer whether its Emax meets or surpasses 60%.
Ans. condition met

Qu. Does CC(=NNC(=N)N)c1ccc(C)c(C)c1 [Compound 3021, Hydrochloride] have a reported Emax of at least 60%?
Ans. condition met

Qu. Determine whether measured Emax meets or exceeds 60% for NC(N)=NN=Cc1ccc(Cl)c(C(F)(F)F)c1 [Compound 2035, Hydrochloride]
Ans. condition met

Qu. Check this compound for Emax at or above 60%: CC(=NNC(=N)N)c1ccc(N2CCCCC2)cc1 [Compound 3039, Hydrochloride]
Ans. condition not met

Qu. # bool: Emax of CCN(CC)c1ccc(C=NNC(=N)N)cc1 [Compound 3038, Hydrochloride] >= 60%
Ans. condition met

Qu. API: above_or_equal(metric=Emax, cutoff=60%) for item COc1ccc(C=NNC(=N)N)cc1Cl [Compound 2043, Hydrochloride]
Ans. condition not met

====

Parameter Emax: see the listing below.
- system.name: NPFF2 (Homo sapiens, UniProt Q9Y5X5)
- Construct: expressed in transfected cells; host or cells: NIH3T3
- assay.procedure: Receptor Selection and Amplification Technology (R-SAT) functional assay, NPFF2
- Format: cell-based
- condition.details: R-SAT, Table 1; Efficacy is relative to endogenous ligand; read-out: NPFF2 % Efficacy
Counter-ions that a name gives are not always drawn.
Unit % implied. Number only.

Measured Emax for this entry CCN(CCO)c1ccc(C=NNC(=N)N)c(C)c1 [Compound 3036, Hydrochloride] on NPFF2 (Homo sapiens, UniProt Q9Y5X5): 82

Value sought: Emax, system NPFF2 (Homo sapiens, UniProt Q9Y5X5), item CN(C)c1ccc(/C=N/NC(=N)N)cc1[N+](=O)[O-] . Result: 51

Tested system NPFF2 (Homo sapiens, UniProt Q9Y5X5); Emax recorded for CCCCC(=NNC(=N)N)c1ccc(N(C)C)cc1 (mixture of isomers) was 69

New cases:
Noted Emax for COc1cc(OC)c(C=NNC(=N)N)cc1Br [Compound 4015, Hydrochloride] , tested on NPFF2 (Homo sapiens, UniProt Q9Y5X5): 64

The compound N=C(N)NN=Cc1ccc(O)c(Cl)c1 [Compound 2031, Hydrochloride] on NPFF2 (Homo sapiens, UniProt Q9Y5X5): Emax was 16

Test item N=C(N)NN=Cc1ccc2c(c1)OCCCO2 [Compound 2038, Hydrochloride] ; NPFF2 (Homo sapiens, UniProt Q9Y5X5); reported Emax was 77

====

- system.name: NPFF2 (Homo sapiens)
- Construct: expressed in transfected cells; host or cells: NIH3T3
- assay.procedure: Receptor Selection and Amplification Technology (R-SAT) functional assay, NPFF2
- Type: cell-based
- condition.details: R-SAT, Table 1; NA = No activity detectable at the highest dose tested (20 μM); read-out: NPFF2 pEC50 (converted)
Where a name gives a salt, the structure may show the parent alone.
parameter.measured: EC50 (µM)
Write the answer as a number in µM, unit excluded.

Value of measured EC50 for the entry CCc1ccc(C=NNC(=N)N)cc1 [Compound 3025, Hydrochloride] : 2

# compound N=C(N)NN=Cc1cccc(C(F)(F)F)c1 [Compound 2002, Hydrochloride] ; its EC50 = 2.51

The compound listed as CCCCCCc1ccc(C(C)=NNC(=N)N)cc1 [Compound 3023, Hydrochloride] shows EC50 equal to 1.26

More entries:
Recorded EC50 (compound N=C(N)NN=Cc1cc(F)ccc1[N+](=O)[O-] [Compound 2004, Hydrochloride] ): 10

Short answer for CCC(=NNC(=N)N)c1ccc(Cl)c(Cl)c1 [Compound 2056, Hydrochloride] : EC50 was 0.501

Query N=C(N)NN=Cc1ccc(F)c(Br)c1 [Compound 2010, Hydrochloride] yields EC50 of 1.26

The reported EC50 of the compound CC(=NNC(=N)N)c1ccc(C)c(C)c1 [Compound 3021, Hydrochloride] was 2.51

Form field EC50, entry N=C(N)NN=Cc1cccc(-c2ccccc2C(F)(F)F)c1 [Compound 2058, Hydrochloride] : 0.501

Sure, the documented EC50 for N=C(N)NN=Cc1ccc(Cl)c(F)c1 [Compound 2030, Hydrochloride] is 2.51

Form field EC50, entry Cc1ccc(C=NNC(=N)N)cc1C [Compound 3019, Hydrochloride] : 2.51

Short answer for N=C(N)NN=Cc1ccc2c(c1)OCCCO2 [Compound 2038, Hydrochloride] : EC50 was 3.98

EC50 for CC(=NNC(=N)N)c1cccc(C)c1 [Compound 3017, Hydrochloride] is 6.31

# EC50 of CCCCCc1ccc(C=NNC(=N)N)cc1 [Compound 3022, Hydrochloride] = 1.26

Record CCN(CC)c1ccc(C=NNC(=N)N)c(OC)c1 [Compound 3043, Hydrochloride] . Reported EC50: 1

Notebook: Cc1cccc(C=NNC(=N)N)c1 [Compound 3018, Hydrochloride] , EC50 read as 5.01

Data point: N=C(N)NN=Cc1ccc(Oc2ccccc2)cc1 [Compound 2020, Hydrochloride] ; EC50 = 0.501

// sample COc1ccc2ccccc2c1C=NNC(=N)N [Compound 3007, Hydrochloride] , its EC50 was 6.31

Sure, the documented EC50 for N=C(N)NN=Cc1cc(C(F)(F)F)ccc1Cl [Compound 2069, Hydrochloride] is 3.16

Field EC50 (entry CCOCCOc1ccc(/C=N/NC(=N)N)cc1Cl [Compound 2054] ) reads 10
